observable: melting point (°C)

Form: compound = CN1C(=O)CC(c2ccccc2)C1C(O)Cc1nc(-c2ccccc2)cs1 (centres unmarked) ; melting point = 189

Form: compound = CSc1nccc(-c2ccc(C(O)C3C(c4ccccc4)CC(=O)N3C)s2)n1 (centres unmarked) ; melting point = 195

Form: compound = CN1C(=O)CC(c2ccccc2)C1C(O)c1ccc(-c2ccccc2)cc1 (centres unmarked) ; melting point = 202

Form: compound = COc1cccc(-c2ccc(C(O)C3C(c4ccccc4)CC(=O)N3C)o2)c1 (centres unmarked) ; melting point = 157

Form: compound = CN1C(=O)C[C@H](c2ccccc2)[C@@H]1[C@H](O)c1ccc(-c2cccc(NS(C)(=O)=O)c2)s1 (racemic) ; melting point = 199

* * *

system: 17-Beta HSD II Enzyme (Homo sapiens, UniProt P37059)
Construct: made in house; host or cells: insect cells (baculovirus)
Sequence (P37059 whole entry): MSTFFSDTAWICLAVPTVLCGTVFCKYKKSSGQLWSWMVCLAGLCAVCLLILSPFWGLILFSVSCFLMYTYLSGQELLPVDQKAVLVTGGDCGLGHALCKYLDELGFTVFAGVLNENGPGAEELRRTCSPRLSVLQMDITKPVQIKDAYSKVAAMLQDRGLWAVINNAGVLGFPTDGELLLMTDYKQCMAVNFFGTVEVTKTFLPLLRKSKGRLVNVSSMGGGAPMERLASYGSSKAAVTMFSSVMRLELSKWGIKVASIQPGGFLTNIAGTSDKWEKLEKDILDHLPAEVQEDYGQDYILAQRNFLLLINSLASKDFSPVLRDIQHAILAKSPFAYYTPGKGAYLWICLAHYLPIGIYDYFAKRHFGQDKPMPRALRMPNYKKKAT
experimentalDetails: Primary assay: inhibition of 17-Beta HSD II enzyme (estradiol/NAD, PMS:MTS colorimetric readout at 490 nm)
Format: biochemical
conditionSummary: Table 7; baculovirus-expressed recombinant HSD II, estradiol substrate; read-out: IC50 values ≧2 μM and <10 μM
# Lookup of reported IC50 keyed by entry

Form: compound = CO[C@H](c1cccs1)[C@H]1[C@@H](c2ccccc2)CC(=O)N1C (relative stereo) [Example 12] ; IC50 = 2 to 10 µM

Form: compound = CN1C(=O)C[C@H](c2ccccc2)[C@@H]1[C@H](O)C#CCN1CCS(=O)(=O)CC1 (racemic) [Example 130] ; IC50 = 2 to 10 µM

Form: compound = CN1C(=O)CC(c2ccccc2)C1C(O)c1ccc(-c2cccc([N+](=O)[O-])c2)o1 (stereo not shown) [Example 123] ; IC50 = 2 to 10 µM

Form: compound = CN1C(=O)C[C@H](c2ccccc2)[C@@H]1[C@H](O)c1cccc2ccccc12 (racemic) [Example 94] ; IC50 = 2 to 10 µM

Form: compound = CC(=O)Nc1cccc(-c2ccc([C@@H](O)[C@H]3[C@@H](c4ccccc4)CC(=O)N3C)o2)c1 (racemic) [Example 121] ; IC50 = 2 to 10 µM

Form: compound = CN(C)c1ccc(-c2ccc([C@@H](O)[C@H]3[C@@H](c4ccccc4)CC(=O)N3C)s2)cc1F (racemic) [Example 28] ; IC50 = 2 to 10 µM

Continue with the next compound.
Form: compound = CN1C(=O)CC(c2ccccc2)C1C(O)c1ccc(-c2ccc(C(F)(F)F)cc2)s1 (stereo not shown) [Example 32] ; IC50 = 2 to 10 µM

* * *

# Lookup of reported melting point keyed by entry

In the examples that follow, each entry is paired with its recorded melting point.
Form: compound = CN1C(=O)C[C@H](c2ccccc2)[C@@H]1[C@H](OCCCc1ccccc1)c1cccs1 [Example 141] ; melting point = 76 to 78 °C

Form: compound = CN1C(=O)CC(c2ccccc2)C1C(O)c1ccc(-c2ccc3ccccc3n2)s1 (stereo not drawn) [Example 40] ; melting point = 225 to 228 °C

Continue with the next compound.
Form: compound = CN1C(=O)C[C@H](c2ccccc2)[C@@H]1[C@H](O)c1ccc(-c2ccc(C(=O)O)cc2)o1 (racemic) [Example 118] ; melting point = 194 °C

* * *

observable: melting point (°C)

Form: compound = Cc1ccc(-c2ccc(C(O)C3C(c4ccccc4)CC(=O)N3C)o2)cc1 (stereo not shown) ; melting point = 187

Form: compound = CN1C(=O)C[C@H](c2ccccc2)[C@@H]1[C@H](O)c1ccc(-c2ccccc2C(F)(F)F)s1 (racemic) ; melting point = 192

Form: compound = CN(C)c1cccc(-c2ccc(C(O)C3C(c4ccccc4)CC(=O)N3C)s2)c1 (stereo not shown) ; melting point = 193

Form: compound = CN(C)c1ccc(-c2ccc([C@@H](O)[C@H]3[C@@H](c4ccccc4)CC(=O)N3C)s2)cc1F (racemic) ; melting point = 173

Form: compound = COc1ccccc1[C@H]1CC(=O)N(C)[C@H]1[C@H](O)c1ccc(S(=O)(=O)c2ccccc2)s1 (racemic) ; melting point = 160

Form: compound = CN1C(=O)CC(c2ccccc2)C1C(O)c1cc(-c2ccccc2)cs1 (stereo not shown) ; melting point = 165

P: CN1C(=O)C[C@H](c2ccccc2F)[C@@H]1[C@H](O)c1ccc(S(=O)(=O)c2ccccc2)s1 (racemic)
Q: COc1cccc(-c2ccc(C(O)C3C(c4ccccc4)CC(=O)N3C)s2)c1 (racemic)
R: Cc1cc(-c2ccccc2)c([C@@H](O)[C@H]2[C@@H](c3ccccc3)CC(=O)N2C)s1 (racemic)
# rank_down: sort by melting point, max first Answer by writing out the labels in the requested order.
P, Q, R

I: CN1C(=O)CC(c2ccccc2)C1C(O)c1ccc(-c2cccnc2)s1 (racemic)
II: CN1C(=O)CC(c2ccccc2)C1C(O)c1ccc(-c2cccc([N+](=O)[O-])c2)o1 (stereo not shown)
Could you please tell me which of these two has the higher melting point: I or II ? Please identify the chosen entry by its label.
I
